assay: Toxicity liver stage against HepG2, at 10uM; assay type: cell-based; parameters: test concentration 10 uM, cell line HepG2-A16-CD81EGFP; settings: human, HepG2-A16-CD81EGFP cells; read-out: INHIBITION
The following molecules are shown together with reported cytotoxicity at 10 µM values.
Reply numerically in %, unit not repeated.

# annotated cases, reported cytotoxicity at 10 µM shown
molecule=Cc1ccc(-c2ncc(CNc3cnccc3CO)s2)cc1 reported=-7.65
molecule=O=C(CN1CCOC1=O)N1CC[C@@H](c2ccc3ccccc3c2)[C@H](O)C1 reported=0.562
molecule="COc1ccc(NC(=O)N2CCOCC(CN(C)C)C2)c(C)c1 (stereo unspecified)" reported=0.124
molecule=Cn1nc(-c2ccc(Cl)cc2)c(Br)c1C(=O)O reported=-46.8
molecule=CCS(=O)(=O)N(C)C1CCN(C(=O)c2cc(C)cc(C)c2)CC1 reported=11.5

Turning to the following molecule.
Input: What value of measured cytotoxicity at 10 µM is listed for c1ccc(Cc2noc(CCNC3CCOC4(CCOCC4)C3)n2)cc1 (stereo unspecified) ?
Output: -0.872

###

The following compounds are shown together with reported cytotoxicity at 10 µM values.
assay: Toxicity liver stage against HepG2, at 10uM; type: cell-based; parameters: test concentration 10 uM, cell line HepG2-A16-CD81EGFP; conditions: human, HepG2-A16-CD81EGFP cells; read-out: INHIBITION

# annotated cases, reported cytotoxicity at 10 µM shown
compound=CC(=O)N1CC2(CCN(C(=O)c3ccc4c(c3)OCCO4)CC2)C1 reported=-11.8%
compound="CC(C)(C)C(=O)N1CCCC(c2ncncc2-c2ccncc2)C1 (configuration not stated)" reported=4.03%
compound="COCc1cnc2n1CCN(C1CCCC1)C2C (configuration not stated)" reported=9.13%
compound=Cc1nc(CN2CCc3ccc(S(N)(=O)=O)cc32)oc1C reported=2.63%
compound=Cn1cc(NCCOc2ccc(F)cc2)cn1 reported=-1.51%
compound=O=C(NC1CCN(Cn2nc(-c3ccccc3)oc2=O)CC1)C1CC1 reported=8.19%

Input: What value of measured cytotoxicity at 10 µM is listed for COCC1CN(C(=O)Cc2cccs2)Cc2c1cnn2C (configuration not stated) ?
Output: -65.6%

Input: What value of measured cytotoxicity at 10 µM is listed for Cc1cc(CNc2cc(Cl)ccc2Cl)no1 ?
Output: 18.9%

Input: What value of measured cytotoxicity at 10 µM is listed for NC(=O)c1ccccc1Oc1cccc(C2CCCNC2)n1 (configuration not stated) ?
Output: 5.19%

Input: What value of measured cytotoxicity at 10 µM is listed for O=C(Cn1cc(-c2ccccc2)cn1)N1CCNC1=O ?
Output: 6.74%

Input: What value of measured cytotoxicity at 10 µM is listed for CN(C)CCN1CCC2(CCN(C(=O)c3ccc(F)cc3)CC2)C1=O ?
Output: -0.00146%

Input: What value of measured cytotoxicity at 10 µM is listed for O=C(NCC(c1ccc(F)cc1)N1CCOCC1)Nc1cn[nH]c1 (configuration not stated) ?
Output: -15%

###

The following molecules are shown together with reported cytotoxicity at 10 µM values.
experiment: Toxicity liver stage against HepG2, at 10uM; type: cell-based; design: test concentration 10 uM, cell line HepG2-A16-CD81EGFP; conditions: human, HepG2-A16-CD81EGFP cells; read-out: INHIBITION
Reply numerically in %, unit not repeated.

# annotated cases, reported cytotoxicity at 10 µM shown
molecule=NC(=O)[C@@H]1Cc2ccccc2CN1CCC(=O)N1CCOCC1 u=% reported=-5.82
molecule=Nc1cc2c(nn1)CCN(C(=O)CCC1CCCCC1)C2 u=% reported=6.5

Turning to the following molecule.
Input: What value of measured cytotoxicity at 10 µM is listed for CC(C)C(C)N(Cc1cnc2ccccc2n1)Cc1ccco1 (configuration not stated) ?
Output: 14.7
